# assaySystem: T1, BMP6 homodimer (UniProt P22004 375-513)
# T1 construct: bone morphogenetic protein 6; source: bought: RND Systems 507-BP-020/CF
# T1 sequence (looked up): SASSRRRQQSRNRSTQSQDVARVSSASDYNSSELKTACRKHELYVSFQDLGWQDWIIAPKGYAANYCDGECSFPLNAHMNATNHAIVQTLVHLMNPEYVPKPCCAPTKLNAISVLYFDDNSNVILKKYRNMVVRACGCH
# methodNotes: SPR; Biacore T200, CM5 chip; BMP2, BMP6 or BMP2/6 immobilised by amine coupling (50 μg/ml); purified bacterial untagged ERFE N-terminal variants or synthetic 53-mer segments as analyte; HBS-EP pH 7.4, 50 μl/min; KD = koff/kon at five concentrations
# assayConditions: both partners purified

binder	Kd [pM]
ERFE N terminus ΔCollagen, 43-148 del109-125 (bacterial) (domain or fragment, human, UniProt Q4G0M1 43-148, looked up, also called bacterial ΔCollagen N terminus; source: E. coli Rosetta2(DE3)pLysS, purified (Ni-NTA, TEV cleavage, reverse IMAC); not shown: His6, N-terminal, cleaved; MBP, N-terminal, cleaved) EPPPGNELPRGPGESRAGPAARPPEPTAERAHSVDPRDAWMLFVRQSDKGVNGKKRSRGKAKKLKFIIPPEALLKEFQLLLKGAVRQRE	756
